# target: UniProtKB P15538
# Sequence (P15538 whole entry): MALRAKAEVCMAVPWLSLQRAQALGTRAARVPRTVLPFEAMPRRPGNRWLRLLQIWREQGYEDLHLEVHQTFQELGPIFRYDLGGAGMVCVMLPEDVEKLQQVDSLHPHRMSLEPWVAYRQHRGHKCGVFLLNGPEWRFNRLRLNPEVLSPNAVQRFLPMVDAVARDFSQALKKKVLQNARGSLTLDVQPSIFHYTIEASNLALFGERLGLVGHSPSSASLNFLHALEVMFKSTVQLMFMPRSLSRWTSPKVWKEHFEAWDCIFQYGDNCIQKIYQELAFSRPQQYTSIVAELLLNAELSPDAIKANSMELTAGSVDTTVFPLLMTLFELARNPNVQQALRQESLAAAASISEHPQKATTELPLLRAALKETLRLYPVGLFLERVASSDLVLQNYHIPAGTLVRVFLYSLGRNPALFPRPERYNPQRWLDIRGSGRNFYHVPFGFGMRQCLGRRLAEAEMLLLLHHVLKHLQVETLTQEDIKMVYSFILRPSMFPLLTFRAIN
# test-description: Inhibition of human Cyp11B1 transfected in chinese hamster V79MZ cells using deoxycorticosterone as substrate incubated for 60 mins prior to substrate addition measured after 25 mins by HPLC analysis
# Type: cell-based
# test-context: human, Chinese hamster V79MZ cells transfected with human CYP11B1, probe deoxycorticosterone
Provide the recorded IC50 at 25 min for the entries that follow.

Find IC50 at 25 min for Cc1nnc2n1-c1cc(Cl)c(-c3cncc4ccccc34)cc1CC2 on UniProtKB P15538 and write it down.
> 10 µM

Find IC50 at 25 min for COc1c(C)cncc1-c1cc2c(cc1F)-n1c(C)nnc1CC2 on UniProtKB P15538 and write it down.
> 10 µM

Send back UniProtKB P15538 IC50 at 25 min of Cc1nnc2n1-c1c(Cl)cc(-c3cnccc3C(F)(F)F)cc1CC2 only.
> 30 µM

Attribution: ChEMBL document CHEMBL2331101
